# run.description: Antifungal activity against Trichophyton mentagrophytes.
# Assay type: functional, Arthroderma benhamiae
# particulars: Trichophyton benhamiae
metric: MIC

input: Given `CN(C/C=C/C(=O)O)Cc1cccc2ccccc12` , state its recorded MIC.
output: < 100 mg/L

input: Queued: `CN(C/C=C/c1ccccc1)Cc1ccccc1`
output: > 100 mg/L

input: Queued: `CN(C/C=C/c1ccccc1)CC1=CCc2ccccc21`
output: 1.6 mg/L
